Catalogue of IC50 values
- TEST TARGET: human IDO1 (Homo sapiens)
- Construct: expressed in transfected cells
- Sequence (P14902 whole entry): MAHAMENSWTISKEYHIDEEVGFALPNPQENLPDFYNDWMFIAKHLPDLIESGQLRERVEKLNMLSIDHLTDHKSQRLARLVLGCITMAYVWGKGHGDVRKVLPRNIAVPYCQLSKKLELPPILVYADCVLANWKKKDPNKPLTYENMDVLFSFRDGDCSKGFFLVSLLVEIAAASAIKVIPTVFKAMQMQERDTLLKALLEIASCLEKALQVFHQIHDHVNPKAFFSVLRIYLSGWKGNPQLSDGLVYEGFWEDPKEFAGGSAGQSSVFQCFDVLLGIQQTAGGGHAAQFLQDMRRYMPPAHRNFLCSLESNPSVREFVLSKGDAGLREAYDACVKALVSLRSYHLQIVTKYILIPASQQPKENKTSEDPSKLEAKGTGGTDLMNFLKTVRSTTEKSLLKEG
- MEASUREMENT NOTES: human IDO1/HEK293 cell IDO inhibition assay (kynurenine production)
- Assay type: cell-based
- ASSAY SETUP: HEK293 cells stably expressing human IDO1; 20 hours incubation; absorbance at 490 nm; read-out: Biol. Activity (HEK μM) IDO IC50

Examples with answers:
O=C(Cc1ccc(Cl)cc1)N(Cc1ccccc1)[C@H]1CC[C@H](c2ccnc3ccc(F)cc32)CC1 [Example 1] : < 10 µM
O=C(Cc1ccc(Cl)cc1)N(Cc1ccccc1)[C@H]1CC[C@@H](c2ccnc3ccc(F)cc32)CC1 [Example 4] : < 10 µM

Task: GET /values?readout=IC50&item= N#Cc1ccc(C(=O)N(Cc2ccccc2)[C@H]2CC[C@H](c3ccnc4ccc(F)cc43)CC2)cc1 [Example 3]
Output: < 10 µM

Task: Also check O=C(c1ccc(Cl)cc1)N(Cc1ccccc1)[C@H]1CC[C@H](c2ccnc3ccc(F)cc32)CC1 [Example 2]
Output: < 1 µM

Data origin, for the record: patent US10323004B2
